Quick list: pKd per entry.
- TARGET OR TEST SYSTEM: BAZ2A PHD (Homo sapiens)
- Construct: The small PHDs (∼6.5 kDa) of both BAZ2A and BAZ2B; made in house
- Sequence (Q9UIF9 1676-1726 limits assumed): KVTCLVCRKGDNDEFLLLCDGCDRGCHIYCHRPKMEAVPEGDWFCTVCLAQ
- TEST NAME: ITC, H3 peptides titrated into BAZ2A PHD (WT)
- Type: binding
- PARTICULARS: ITC, 25°C, 20 mM HEPES pH 8, 150 mM NaCl, 0.5 mM TCEP; peptide 1.5–3 mM into protein 80–120 µM; single-site fit; error from fit (Table 2); read-out: KD
No end group written: not given here.
Scale explanation: pKd corresponds to minus log10 of a concentration expressed in moles per litre.

{"SUBSTANCE": "ARTGGTARKS-NH2 [ARTGGTARKS]", "TARGET OR TEST SYSTEM": "BAZ2A PHD (Homo sapiens)", "pKd": 3.84}

Lab note: next substance to report on.
Entry ARTAATARKS-NH2 [ARTAATARKS] , pKd reported as 4.92

---

- TARGET OR TEST SYSTEM: BAZ2A PHD (Homo sapiens)
- Construct: The small PHDs (∼6.5 kDa) of both BAZ2A and BAZ2B; made in house
- TEST NAME: ITC, H3 peptides titrated into BAZ2A PHD (WT)
- Assay type: binding
- PARTICULARS: ITC, 25°C, 20 mM HEPES pH 8, 150 mM NaCl, 0.5 mM TCEP; peptide 1.5–3 mM into protein 80–120 µM; single-site fit; error from fit (Table 2); read-out: KD
Residues, ends and D or L forms follow the SMILES beside them.
Please note: Kd exactly at 40 µM is False. Only values below 40 µM get True.

For orientation, consider the following solved cases.
{"COMPOUND": "C[C@H](N)C(=O)N[C@@H](CCCNC(=N)N)C(=O)N[C@H](C(=O)N[C@@H](C)C(N)=O)[C@@H](C)O [ARTA] (H-ARTA-NH2)", "CLASS NAME": "False"}
{"COMPOUND": "C[C@H](N)C(=O)N[C@@H](CCCNC(=N)N)C(=O)N[C@H](C(=O)N[C@@H](CCCCN)C(N)=O)[C@@H](C)O [ARTK] (H-ARTK-NH2)", "CLASS NAME": "False"}
{"COMPOUND": "C[C@H](N)C(=O)N[C@@H](CCCNC(=N)N)C(=O)N[C@H](C(=O)N[C@@H](CCCCN)C(=O)N[C@@H](C)C(=O)N[C@H](C(=O)N[C@@H](C)C(=O)N[C@@H](CCCNC(=N)N)C(=O)N[C@@H](CCCCN)C(=O)N[C@@H](CO)C(N)=O)[C@@H](C)O)[C@@H](C)O [ARTKATARKS]", "CLASS NAME": "True"}
{"COMPOUND": "C[C@H](N)C(=O)N[C@@H](CCCNC(=N)N)C(=O)N[C@H](C(=O)N[C@@H](CCCCN)C(=O)N[C@@H](CCC(N)=O)C(=O)N[C@@H](C)C(=O)N[C@@H](C)C(=O)N[C@@H](CCCNC(=N)N)C(=O)N[C@@H](CCCCN)C(=O)N[C@@H](CO)C(N)=O)[C@@H](C)O [ARTKQAARKS]", "CLASS NAME": "False"}
{"COMPOUND": "C[C@H](N)C(=O)N[C@@H](CCCNC(=N)N)C(=O)N[C@H](C(=O)N[C@@H](C)C(=O)N[C@@H](CCC(N)=O)C(=O)N[C@H](C(=O)N[C@@H](C)C(=O)N[C@@H](CCCNC(=N)N)C(=O)N[C@@H](CCCCN)C(=O)N[C@@H](CO)C(N)=O)[C@@H](C)O)[C@@H](C)O [ARTAQTARKS]", "CLASS NAME": "False"}

Query compound follows.
Ask: # strict comparison: is reported Kd < 40 µM? input = C[C@H](N)C(=O)N[C@@H](CCCNC(=N)N)C(=O)N[C@H](C(=O)N[C@@H](CCCCN)C(=O)N[C@@H](CCC(N)=O)C(N)=O)[C@@H](C)O [ARTKQ]
Reply: False

---

- TARGET OR TEST SYSTEM: BAZ2B PHD (Homo sapiens)
- Construct: The small PHDs (∼6.5 kDa) of both BAZ2A and BAZ2B; made in house
- Sequence (Q9UIF8 1931-1981 limits assumed): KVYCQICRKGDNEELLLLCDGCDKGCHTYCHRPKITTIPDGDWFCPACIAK
- TEST NAME: ITC, H3 peptides titrated into BAZ2B PHD (WT)
- Type: binding
- PARTICULARS: ITC, 25°C, 20 mM HEPES pH 8, 150 mM NaCl, 0.5 mM TCEP; peptide 1.5–3 mM into protein 80–120 µM; single-site fit; error from fit (Table 2); read-out: KD
QUANTITY NAME: Kd (µM)
Enter your answer as a number in µM; do not include the unit.

// worked examples, Kd included
{"SMILES INPUT": "C[C@H](N)C(=O)N[C@@H](CCCNC(=N)N)C(=O)N[C@H](C(=O)N[C@@H](CCCCN)C(=O)N[C@@H](C)C(=O)N[C@H](C(=O)N[C@@H](C)C(=O)N[C@@H](CCCNC(=N)N)C(=O)N[C@@H](CCCCN)C(=O)N[C@@H](CO)C(N)=O)[C@@H](C)O)[C@@H](C)O", "READOUT UNITS": "µM", "VALUE OBSERVED": 7}
{"SMILES INPUT": "C[C@H](N)C(=O)N[C@@H](CCCNC(=N)N)C(=O)N[C@H](C(=O)N[C@@H](CCCCN)C(=O)N[C@@H](CCC(N)=O)C(N)=O)[C@@H](C)O", "READOUT UNITS": "µM", "VALUE OBSERVED": 190}
{"SMILES INPUT": "C[C@H](N)C(=O)N[C@@H](CCCNC(=N)N)C(=O)N[C@H](C(=O)N[C@@H](CCCCN)C(=O)N[C@@H](CCC(N)=O)C(=O)N[C@@H](C)C(=O)N[C@@H](C)C(=O)N[C@@H](CCCNC(=N)N)C(=O)N[C@@H](CCCCN)C(=O)N[C@@H](CO)C(N)=O)[C@@H](C)O", "READOUT UNITS": "µM", "VALUE OBSERVED": 44.6}

Now, please, on to the next molecule.
Record C[C@H](N)C(=O)N[C@@H](CCCNC(=N)N)C(=O)N[C@H](C(=O)N[C@@H](C)C(=O)N[C@@H](CCC(N)=O)C(=O)N[C@H](C(=O)N[C@@H](C)C(=O)N[C@@H](CCCNC(=N)N)C(=O)N[C@@H](CCCCN)C(=O)N[C@@H](CO)C(N)=O)[C@@H](C)O)[C@@H](C)O / BAZ2B PHD (Homo sapiens), Kd recorded as 8.5
